Data credit: ChEMBL document CHEMBL1131455

For each of the molecules below, state its IC50.
- tgt: Serotonin 3 (5-HT3) receptor (Rattus norvegicus, UniProt P35563+Q9JJ16)
- Sequence (P35563 whole entry): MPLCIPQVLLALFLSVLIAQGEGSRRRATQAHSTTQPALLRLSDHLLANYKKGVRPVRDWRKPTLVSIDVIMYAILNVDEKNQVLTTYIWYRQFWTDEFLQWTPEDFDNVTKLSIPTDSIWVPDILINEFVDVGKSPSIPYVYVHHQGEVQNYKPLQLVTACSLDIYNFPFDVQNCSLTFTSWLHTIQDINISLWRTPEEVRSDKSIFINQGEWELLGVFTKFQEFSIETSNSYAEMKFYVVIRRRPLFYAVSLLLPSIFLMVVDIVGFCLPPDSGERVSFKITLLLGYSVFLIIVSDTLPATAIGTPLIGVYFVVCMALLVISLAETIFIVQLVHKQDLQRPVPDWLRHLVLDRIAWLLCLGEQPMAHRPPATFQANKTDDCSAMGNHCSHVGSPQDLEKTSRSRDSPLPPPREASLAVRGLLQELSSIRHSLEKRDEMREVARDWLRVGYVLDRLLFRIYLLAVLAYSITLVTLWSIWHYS
- Sequence (Q9JJ16 whole entry): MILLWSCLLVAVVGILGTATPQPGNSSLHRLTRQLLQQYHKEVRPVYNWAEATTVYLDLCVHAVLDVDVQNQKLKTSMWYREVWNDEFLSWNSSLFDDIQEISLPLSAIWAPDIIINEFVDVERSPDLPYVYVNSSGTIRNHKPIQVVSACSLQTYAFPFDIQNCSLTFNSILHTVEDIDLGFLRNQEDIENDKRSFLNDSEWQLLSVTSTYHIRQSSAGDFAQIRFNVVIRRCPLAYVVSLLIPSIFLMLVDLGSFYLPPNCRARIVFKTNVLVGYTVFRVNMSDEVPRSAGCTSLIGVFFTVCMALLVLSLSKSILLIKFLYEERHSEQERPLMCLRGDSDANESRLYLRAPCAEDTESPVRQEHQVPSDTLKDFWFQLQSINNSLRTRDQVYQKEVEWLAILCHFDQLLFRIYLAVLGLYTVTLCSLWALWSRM
- method-description: Compound was evaluated for its binding affinity for 5-hydroxytryptamine 3 receptor by measuring displacement of [3H]granisetron from rat cerebral cortex
- Format: tissue-based
Write the answer as a number in nM, unit excluded.

# molecule `CN1CCN(c2nnc(-c3ccccc3)c3ccccc23)CC1` ; its IC50 = 370

# molecule `CN1CCN(c2nncc3ccccc23)CC1` ; its IC50 = 10

# molecule `CN1CCN(c2ccc(-c3ccccc3)nn2)CC1` ; its IC50 = 425

# molecule `CN1CCN(c2cc(-c3ccccc3)cnn2)CC1` ; its IC50 = 36
